# target-entity: MEK2 full length (Homo sapiens, UniProt P36507)
# Sequence (P36507 whole entry): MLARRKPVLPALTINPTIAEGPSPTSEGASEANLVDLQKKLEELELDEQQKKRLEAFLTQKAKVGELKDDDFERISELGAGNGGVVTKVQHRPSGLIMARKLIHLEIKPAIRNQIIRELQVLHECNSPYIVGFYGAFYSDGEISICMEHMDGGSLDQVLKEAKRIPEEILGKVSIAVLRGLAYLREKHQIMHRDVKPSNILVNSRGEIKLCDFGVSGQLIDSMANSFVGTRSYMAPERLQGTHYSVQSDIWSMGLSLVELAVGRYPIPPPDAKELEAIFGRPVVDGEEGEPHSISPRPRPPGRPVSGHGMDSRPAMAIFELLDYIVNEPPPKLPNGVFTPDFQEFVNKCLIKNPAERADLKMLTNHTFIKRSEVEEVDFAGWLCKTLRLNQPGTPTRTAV
# procedure-details: SPR
# Assay type: binding
# condition-context: CM5 chip, Biacore T200, read-out: equilibrium dissociation constant (KD)
# Method: 293 T cells were transfected with plasmids of pcDNA3.1-3×Flag-C-MAP2K1/MAP2K1 (K97A, M146A), MAP2K2/MAP2K1 (K101A, M150A), or CRAF/CRAF (K375A). […] The upper right value was assigned to Erianin by position. […] After incubation, a series concentration of erianin (RAF inhibitor LY3009120 and MEK inhibitor cobimetinib were simultaneously added as positive control) flowed through the protein-CM5 system. The binding was tested and analyzed using Biacore T200 instrument.
pKd: −log10 of the molar value.

| chemical-string | pKd |
| --- | --- |
| COc1ccc(CCc2cc(OC)c(OC)c(OC)c2)cc1O | 3.94 |

---

# procedure-details: Pharmacokinetic assay
# Type: in vivo, Kunming mice
# condition-context: Kunming, mouse, plasma; oral gavage 50 mg/kg vs tail vein injection 25 mg/kg

| chemical-string | bioavailability |
| --- | --- |
| COc1ccc(CCc2cc(OC)c(OC)c(OC)c2)cc1O | 8% |

---

# target-entity: UniProtKB Q02750
# Sequence (Q02750 whole entry): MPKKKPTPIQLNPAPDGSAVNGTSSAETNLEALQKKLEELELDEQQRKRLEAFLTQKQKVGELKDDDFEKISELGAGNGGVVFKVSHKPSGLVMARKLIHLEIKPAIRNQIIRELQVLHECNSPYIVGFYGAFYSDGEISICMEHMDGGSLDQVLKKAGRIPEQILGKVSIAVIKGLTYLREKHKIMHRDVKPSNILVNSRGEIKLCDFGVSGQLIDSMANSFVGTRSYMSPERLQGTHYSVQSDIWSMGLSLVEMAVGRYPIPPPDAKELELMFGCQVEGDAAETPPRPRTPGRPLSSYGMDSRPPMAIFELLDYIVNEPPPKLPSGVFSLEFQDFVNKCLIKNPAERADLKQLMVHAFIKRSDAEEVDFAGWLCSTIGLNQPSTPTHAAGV
# procedure-details: ITC assay
# Assay type: binding
# condition-context: PBS (0.1% DMSO, pH = 7.4), read-out: affinity (Kd)
metric: Kd (µM)

| chemical-string | metric | result-number |
| --- | --- | --- |
| COc1ccc(CCc2cc(OC)c(OC)c(OC)c2)cc1O | Kd | 59.3 |

---

# target-entity: CRAF (306-end) (Homo sapiens, UniProt P04049)
# Construct: purchased
# Sequence (P04049 306-648 limits assumed): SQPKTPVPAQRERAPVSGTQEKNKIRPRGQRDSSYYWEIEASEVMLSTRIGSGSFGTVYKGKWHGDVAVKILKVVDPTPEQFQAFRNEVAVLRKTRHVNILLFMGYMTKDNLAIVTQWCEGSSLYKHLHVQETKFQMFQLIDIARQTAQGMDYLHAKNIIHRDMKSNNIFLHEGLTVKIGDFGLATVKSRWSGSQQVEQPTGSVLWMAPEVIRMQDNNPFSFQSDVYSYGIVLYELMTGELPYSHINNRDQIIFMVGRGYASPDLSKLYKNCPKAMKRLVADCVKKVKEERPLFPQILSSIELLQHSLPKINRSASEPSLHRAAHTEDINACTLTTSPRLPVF
# procedure-details: ITC assay
# Assay type: binding
# condition-context: PBS (0.1% DMSO, pH = 7.4), read-out: affinity (Kd)
pKd: −log10 of the molar value.
metric: pKd

| chemical-string | result-number |
| --- | --- |
| COc1ccc(CCc2cc(OC)c(OC)c(OC)c2)cc1O | 4.34 |

---

# Tested on: SK-MEL-28 (BRAF V600E)
# procedure-details: Cell proliferation MTT assay
# Format: cell-based
# condition-context: Homo sapiens, SK-MEL-28, 72 h
List of IC50 values.
metric: IC50 (nM)

| chemical-string | target-entity | metric | unit-of-measure | result-number |
| --- | --- | --- | --- | --- |
| CC(C)(C)c1nc(-c2cccc(NS(=O)(=O)c3c(F)cccc3F)c2F)c(-c2ccnc(N)n2)s1 | SK-MEL-28 (BRAF V600E) | IC50 | nM | 41 |
| COc1ccc(CCc2cc(OC)c(OC)c(OC)c2)cc1O | SK-MEL-28 (BRAF V600E) | IC50 | nM | 50.6 |
